System: MYC
Assay: In vitro transcription-translation (IVTT) assay, MYC reporter
Type: biochemical
Settings: IVTT assay, HeLa S3 lysate, MYC reporter, normalized sfGFP/mCherry ratio; half-log dilutions 30 μM-0.1 μM, 2 hrs at 30° C.
From the text: All reporter constructs have been cloned into the pT7CFE1-CHis plasmid (ThermoFisher #88860) using Gibson assembly procedures (NEB #E2611L). […] All reporters are designed to be inserted at the MCS to include a red fluorescent protein (mCherry), P2A self-cleaving peptide which releases the preceding mCherry protein product, and a fusion open reading frame containing a 3×FLAG epitope, a peptide sequence of interest (TEST), and green fluorescent protein (sfGFP). […]
pIC50: −log10 of the molar value.
Listing of entries alongside the reported pIC50.

{"columns": ["compound", "pIC50"],
 "data": [
  ["O=C(NCC[C@@H]1CCCCNC1)O[C@@H]1[C@@H](O)CN[C@@H]1Cc1ccc(-c2cnco2)cc1", "> 5.00"],
  ["O=C(NCc1cccc(F)c1)O[C@@H]1[C@@H](O)CN[C@@H]1Cc1ccc(-c2cnns2)cc1", "> 5.00"],
  ["COc1ccc(C[C@H]2NC[C@H](O)[C@H]2OC(=O)NCC23CC(N)(C2)C3)cc1", "4.70 to 5.00"],
  ["O=C(NCC[C@H]1CCNCC1(F)F)O[C@@H]1[C@@H](O)CN[C@@H]1Cc1ccc(-c2cnco2)cc1", "> 5.00"],
  ["COc1ccc(C[C@H]2NC[C@H](O)[C@H]2OC(=O)NCC[C@]2(C)CCCN2)cc1", "> 5.00"],
  ["COc1ccc(C[C@H]2NC[C@H](O)[C@H]2OC(=O)NCc2ccccc2C#N)cc1", "> 5.00"],
  ["O=C(NCC[C@@H]1CCCN1)O[C@@H]1[C@@H](O)CN[C@@H]1Cc1ccc(-c2cnco2)c(F)c1", "> 5.00"],
  ["O=C(NCc1cccc(F)c1)O[C@@H]1[C@@H](O)CN[C@@H]1Cc1ccc(-c2cncs2)cc1", "> 5.00"],
  ["O=C(NCc1cc(F)cc(F)c1)O[C@@H]1[C@@H](O)CN[C@@H]1Cc1ccc(Cl)cc1", "4.70 to 5.00"],
  ["COc1ccc(C[C@H]2NC[C@H](O)[C@H]2OC(=O)NCc2cccc(F)c2)cc1", "> 5.00"],
  ["O=C(NCc1cccc(C2CNC2)c1)O[C@@H]1[C@@H](O)CN[C@@H]1Cc1ccc(-c2cc(C(F)F)cs2)cc1", "> 5.00"],
  ["O=C(NCC[C@@H]1CCCN1)O[C@@H]1[C@@H](O)CN[C@@H]1Cc1ccc(C(F)F)cc1", "> 5.00"],
  ["O=C(NCc1cccc(F)c1)O[C@@H]1[C@@H](O)CN[C@@H]1Cc1ccc(OCF)cc1", "> 5.00"],
  ["O=C(NCC[C@H]1CCCN1)O[C@@H]1[C@@H](O)CN[C@@H]1Cc1ccc(-c2ccccc2)cc1", "> 5.00"],
  ["O=C(NCc1ccccc1)O[C@@H]1[C@@H](O)CN[C@@H]1Cc1ccc(Cl)cc1", "4.70 to 5.00"],
  ["COc1ccc(C[C@H]2NC[C@H](O)[C@H]2OC(=O)NCC[C@@]2(C)CCCN2)cc1", "> 5.00"],
  ["COc1ccc(C[C@H]2NC[C@H](O)[C@H]2OC(=O)NC[C@H]2CCN(C)C2)cc1 [V188306]", "> 5.00"],
  ["COc1ccc(C[C@H]2NC[C@H](O)[C@H]2OC(=O)NCc2ccnc(N3CCCC3)c2)cc1", "> 5.00"],
  ["O=C(NC[C@@H]1CCOC1)O[C@@H]1[C@@H](O)CN[C@@H]1Cc1ccc(Cl)cc1", "4.70 to 5.00"],
  ["COc1ccc(C[C@H]2NC[C@H](O)[C@H]2OC(=O)NCC[C@H]2CCCN2C)cc1", "< 4.52"],
  ["CNC1(c2ccc(CNC(=O)O[C@@H]3[C@@H](O)CN[C@@H]3Cc3ccc(-c4cnco4)cc3)cc2)CC1", "> 5.00"],
  ["COc1ccc(C[C@H]2NC[C@H](O)[C@H]2OC(=O)NCc2ccc3c(c2)CCNC3)cc1", "> 5.00"],
  ["COc1ccc(C[C@H]2NC[C@H](O)[C@H]2OC(=O)NCc2ccc(F)c(C#N)c2)cc1", "> 5.00"],
  ["CNC(=O)c1ccc(CNC(=O)O[C@@H]2[C@@H](O)CN[C@@H]2Cc2ccc(OC)cc2)cc1", "> 5.00"],
  ["O=C(NCc1ccc2c(c1)CNC2)O[C@@H]1[C@@H](O)CN[C@@H]1Cc1ccc(-c2cc(C(F)F)cs2)cc1", "> 5.00"],
  ["O=C(NCc1cncc(N2CCC2)c1)O[C@@H]1[C@@H](O)CN[C@@H]1Cc1ccc(-c2cnco2)cc1", "> 5.00"],
  ["O=C(NCc1cccc(F)c1)O[C@@H]1[C@@H](O)CN[C@@H]1Cc1ccc(-c2ccns2)cc1", "> 5.00"],
  ["COc1ccc(C[C@H]2NC[C@H](O)[C@H]2OC(=O)N[C@@H](C)c2ccccc2)cc1", "4.70 to 5.00"],
  ["O=C(NCc1cccc(F)c1)O[C@@H]1[C@@H](O)CN[C@@H]1Cc1ccc(-c2cn3cc(C(F)(F)F)nc3s2)cc1", "> 5.00"],
  ["CCCOc1ccc(C[C@H]2NC[C@H](O)[C@H]2OC(=O)NCc2ccccc2)cc1", "> 5.00"],
  ["COc1ccc(C[C@H]2NC[C@H](O)[C@H]2OC(=O)NCc2ccc(F)cc2)cc1", "> 5.00"],
  ["O=C(NCc1cccc(F)c1)O[C@@H]1[C@@H](O)CN[C@@H]1Cc1ccc(-c2ccc(C(F)(F)F)cc2)cc1", "< 4.52"]
]}
